# Lookup of reported EC50 keyed by entry
Test target: GPR120 (Homo sapiens)
Construct: expressed in transfected cells; host or cells: CHO mitoPhotinaGPR120 cells
Sequence (Q5NUL3 1-361): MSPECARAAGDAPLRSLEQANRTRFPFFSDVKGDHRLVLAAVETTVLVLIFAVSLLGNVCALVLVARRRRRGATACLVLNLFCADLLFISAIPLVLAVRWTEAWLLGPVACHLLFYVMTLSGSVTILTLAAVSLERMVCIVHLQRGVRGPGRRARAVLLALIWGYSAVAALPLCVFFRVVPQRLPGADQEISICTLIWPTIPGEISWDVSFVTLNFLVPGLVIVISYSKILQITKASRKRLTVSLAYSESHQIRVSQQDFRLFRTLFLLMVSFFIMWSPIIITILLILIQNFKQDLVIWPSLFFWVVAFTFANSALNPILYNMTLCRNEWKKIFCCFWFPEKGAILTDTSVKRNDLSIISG
Measurement protocol: GPR120 agonism in CHO mitoPhotinaGPR120 cell based assay with fluorescent (Fluo-8 calcium, FLIPRTetra) readout, Agonist Mode, dose response
Reported conditions: CHO mitoPhotinaGPR120 cells, Fluo-8 No Wash Ca2+ dye, dose response in quadruplicate, 0.0033% fatty acid free BSA
Report as a plain number; the unit µM is understood.

Example results:
Cc1nn(-c2ccccc2)c(COc2cccc(CO)c2)c1C#N [Example 24] : 7.31
Cc1nn(-c2ccccc2)c(COc2c(F)cc(CCCO)cc2F)c1C#N [Example 32] : 0.09
Cc1nn(C2CCCC2)c(COc2ccc(CCO)cc2)c1C#N [Example 117] : 1.2
Cc1nn(-c2ccccc2)c(COc2ccc(F)nc2F)c1C#N [Example 71] : 5.69
COc1ccc(-n2nc(C)c(C#N)c2COc2c(F)cc(CCCO)cc2F)nc1 [Example 167] : 0.21
Cc1ccc(-n2nc(C)c(C#N)c2COc2ccc(CCCO)cc2)cc1 [Example 150] : 0.15
Cc1nn(-c2ccc(Cl)nn2)c(COc2ccc(CCO)cc2)c1C#N [Example 116] : 1.63
Cc1nn(Cc2ccccc2)c(COc2ccc(CCO)cc2)c1C#N [Example 88] : 11.2

input: Value lookup for EC50; key = Cc1nn(-c2ccccc2)c(C(F)(F)Oc2ccc(CCCO)cc2)c1C#N [Example 95]
output: 0.83

====

# Lookup of reported EC50 keyed by entry
Test target: GPR120 (Homo sapiens, UniProt Q5NUL3)
Construct: expressed in transfected cells; host or cells: CHO mitoPhotinaGPR120 cells
Measurement protocol: GPR120 agonism in CHO mitoPhotinaGPR120 cell based assay with fluorescent (Fluo-8 calcium, FLIPRTetra) readout, Agonist Mode, dose response
Reported conditions: CHO mitoPhotinaGPR120 cells, Fluo-8 No Wash Ca2+ dye, dose response in quadruplicate, 0.0033% fatty acid free BSA
Procedure: Compounds of the invention were tested for GPR120 agonism in a CHO mitoPhotinaGPR120 cell based assay with fluorescent readout in Agonist Mode in dose response in quadruplicate with intra-plate modality. Twenty (20) h after seeding, growth medium was manually removed and cells were starved in the presence of 25 μL/w of Standard Tyrode's Buffer. After 3 h, cells were loaded with 20 μL/w of 0.5× Fluo-8 No Wash (AAT Bioquest, Inc.) Ca2+ sensitive dye prepared in Standard Tyrode's Buffer. […]
Report as a plain number; the unit µM is understood.

Example results:
Cc1ccc(-n2nc(C)c(C#N)c2COc2ccc(CCO)cc2)cc1 : 0.49
Cc1nn(-c2ccc(Cl)cc2)c(COc2ccc(CCO)cc2)c1C#N : 0.76
Cc1nn(-c2ncccn2)c(COc2ccc(CCO)cc2)c1C#N : 12.6
Cc1nn(-c2ccccn2)c(COc2ccc(CCCO)cc2)c1C#N : 0.15
Cc1nn(-c2ccc(F)cc2)c(COc2ccccc2)c1C#N : 2.22

input: Value lookup for EC50; key = Cc1nn(-c2ccccc2)c(C(C)Oc2ccc(CCO)cc2)c1C#N (stereo not shown)
output: 3.66

input: Value lookup for EC50; key = Cc1cc(COc2ccc(CCO)cc2)n(-c2ccccc2)n1
output: 5.92

input: Value lookup for EC50; key = Cc1nn(-c2cccnn2)c(COc2ccc(CCO)cc2)c1C#N
output: 2.49

input: Value lookup for EC50; key = Cc1nn(C2CCCC2)c(COc2ccc(CCCO)cc2)c1C#N
output: 0.18

====

# Lookup of reported EC50 keyed by entry
Test target: GPR120 (Homo sapiens, UniProt Q5NUL3)
Construct: expressed in transfected cells; host or cells: CHO mitoPhotinaGPR120 cells
Measurement protocol: GPR120 agonism in CHO mitoPhotinaGPR120 cell based assay with fluorescent (Fluo-8 calcium, FLIPRTetra) readout, Agonist Mode, dose response
Reported conditions: CHO mitoPhotinaGPR120 cells, Fluo-8 No Wash Ca2+ dye, dose response in quadruplicate, 0.0033% fatty acid free BSA
Report as a plain number; the unit µM is understood.

Example results:
Cc1ccc(-n2nc(C)c(C#N)c2COc2c(F)cc(CCCO)cc2F)nc1 : 0.17
Cc1nn(-c2ccc(Cl)cn2)c(COc2c(F)cc(CCCO)cc2F)c1C#N : 0.22
Cc1ccc(OCc2c(C#N)c(C)nn2-c2ccccc2)cc1 : 1.67
Cc1nn(-c2ccccc2)c(COc2ccc(CO)c(F)c2F)c1C#N : 3.09

Now for a further compound.
input: Value lookup for EC50; key = Cc1nn(-c2ccccc2)c(COc2ccc(CC(=O)NCCO)cc2)c1C#N
output: 18.4

====

Test target: GPR120 (Homo sapiens)
Construct: expressed in transfected cells; host or cells: CHO mitoPhotinaGPR120 cells
Sequence (Q5NUL3 1-361): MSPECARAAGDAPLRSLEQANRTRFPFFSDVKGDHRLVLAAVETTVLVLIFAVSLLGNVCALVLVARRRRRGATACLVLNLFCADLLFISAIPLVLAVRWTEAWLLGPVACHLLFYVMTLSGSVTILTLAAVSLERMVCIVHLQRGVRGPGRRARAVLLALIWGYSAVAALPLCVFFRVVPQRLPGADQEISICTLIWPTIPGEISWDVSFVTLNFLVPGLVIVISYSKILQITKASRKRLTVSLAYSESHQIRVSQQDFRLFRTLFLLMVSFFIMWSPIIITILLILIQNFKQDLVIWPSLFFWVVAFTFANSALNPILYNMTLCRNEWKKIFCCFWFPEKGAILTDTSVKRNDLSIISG
Measurement protocol: GPR120 agonism in CHO mitoPhotinaGPR120 cell based assay with fluorescent (Fluo-8 calcium, FLIPRTetra) readout, Agonist Mode, dose response
Reported conditions: CHO mitoPhotinaGPR120 cells, Fluo-8 No Wash Ca2+ dye, dose response in quadruplicate, 0.0033% fatty acid free BSA
Method: Compounds of the invention were tested for GPR120 agonism in a CHO mitoPhotinaGPR120 cell based assay with fluorescent readout in Agonist Mode in dose response in quadruplicate with intra-plate modality. Twenty (20) h after seeding, growth medium was manually removed and cells were starved in the presence of 25 μL/w of Standard Tyrode's Buffer. After 3 h, cells were loaded with 20 μL/w of 0.5× Fluo-8 No Wash (AAT Bioquest, Inc.) Ca2+ sensitive dye prepared in Standard Tyrode's Buffer. […]
# Lookup of reported log10(EC50) keyed by entry
For clarity, the numbers are log10 values of EC50 expressed in µM.

Example results:
Cc1nn(-c2ccccn2)c(COc2ccc(CCO)cc2)c1C#N : -0.28
Cc1nn(-c2ccccc2)c(COc2cccc(F)c2)c1C#N : -0.10

input: Value lookup for log10(EC50); key = Cc1nn(-c2ccccc2)c(COc2ccc(CCC(C)O)cc2)c1C#N (single isomer, unassigned; (+)) [Example 47A]
output: -0.30

input: Value lookup for log10(EC50); key = Cc1nn(-c2cccc(F)c2)c(COc2ccc(CCO)cc2)c1C#N
output: 0.17

input: Value lookup for log10(EC50); key = Cc1nn(-c2cccc(C(F)(F)F)c2)c(COc2ccc(CCO)cc2)c1C#N
output: 0.96

input: Value lookup for log10(EC50); key = Cc1nn(-c2ccccc2)c(COc2ccc(CC#N)cc2)c1C#N
output: 0.63

input: Value lookup for log10(EC50); key = COCCc1ccc(OCc2c(C#N)c(C)nn2-c2ccccc2)cc1
output: 0.70

input: Value lookup for log10(EC50); key = Cc1ccncc1OCc1c(C#N)c(C)nn1-c1ccccc1
output: 0.92

====

Test target: GPR120 (Homo sapiens)
Construct: expressed in transfected cells; host or cells: CHO mitoPhotinaGPR120 cells
Sequence (Q5NUL3 1-361): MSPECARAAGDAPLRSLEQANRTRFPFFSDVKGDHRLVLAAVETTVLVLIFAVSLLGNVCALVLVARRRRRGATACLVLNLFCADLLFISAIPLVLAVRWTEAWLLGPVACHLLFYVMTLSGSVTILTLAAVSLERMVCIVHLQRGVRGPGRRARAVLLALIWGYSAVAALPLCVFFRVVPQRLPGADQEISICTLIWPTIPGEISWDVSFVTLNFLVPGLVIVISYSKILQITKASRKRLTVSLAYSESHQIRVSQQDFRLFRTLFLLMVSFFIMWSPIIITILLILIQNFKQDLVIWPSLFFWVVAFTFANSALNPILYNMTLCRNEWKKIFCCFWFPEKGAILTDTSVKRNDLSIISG
Measurement protocol: GPR120 agonism in CHO mitoPhotinaGPR120 cell based assay with fluorescent (Fluo-8 calcium, FLIPRTetra) readout, Agonist Mode, dose response
Reported conditions: CHO mitoPhotinaGPR120 cells, Fluo-8 No Wash Ca2+ dye, dose response in quadruplicate, 0.0033% fatty acid free BSA
# Lookup of reported log10(EC50) keyed by entry
For clarity, the numbers are log10 values of EC50 expressed in µM.

input: Recorded log10(EC50) for Cc1nn(C2CCCC2)c(COc2c(F)cc(CCCO)cc2F)c1C#N [Example 163] with GPR120 (Homo sapiens), please?
output: -1.00

input: Recorded log10(EC50) for Cc1nn(-c2ccccc2)c(COCc2ccc(C#N)cc2)c1C#N [Example 97] with GPR120 (Homo sapiens), please?
output: 0.45

input: Recorded log10(EC50) for Cc1nn(-c2cccc(Cl)c2)c(COc2ccc(CCO)cc2)c1C#N [Example 75] with GPR120 (Homo sapiens), please?
output: 0.66

input: Recorded log10(EC50) for Cc1nn(-c2ccccc2)c(COc2ccc(CCO)cc2F)c1C#N [Example 33] with GPR120 (Homo sapiens), please?
output: 0.10

input: Recorded log10(EC50) for Cc1nn(-c2ccccc2)c(COc2ccc(CCC(C)O)cc2)c1C#N (single isomer, unassigned; (-)) [Example 47B] with GPR120 (Homo sapiens), please?
output: 0.37

input: Recorded log10(EC50) for COc1cc(CCCO)ccc1OCc1c(C#N)c(C)nn1-c1ccccc1 [Example 53] with GPR120 (Homo sapiens), please?
output: -0.28

input: Recorded log10(EC50) for Cc1nn(-c2ccc(Cl)cn2)c(COc2ccc(CCCO)cc2)c1C#N [Example 155] with GPR120 (Homo sapiens), please?
output: -0.09
